Species: Rattus norvegicus
assay_details: Activation of ATP-sensitive potassium channel in Wistar rat pancreatic beta islets assessed as glucose-induced residual insulin secretion at 50 uM relative to control
test_readout: Activity (%)

CC1(C)Oc2ccc(C#N)cc2C(N2CCCC2=O)C1O (stereo not given) = 77.2
COc1ccccc1CNC(=O)c1cccs1 = 83.3

(I) COc1ccccc1CNC(=O)c1ccc([N+](=O)[O-])cc1
(II) CC1=Nc2ccc(Cl)cc2S(=O)(=O)N1 [DIAZOXIDE]
Request: Among I and II , which shows a numerically higher Activity result? Return value: the label identifying the chosen record.
Result: I
(I: 86.6%, II: 27.9%)

meta.source: ChEMBL document CHEMBL1150392
